assay: inhibitors of hydroxyurea-induced Chk1 phosphorylation, primary screen, imaging, HeLa, phospho-Chk1 nuclear intensity (AID 1187); further: test concentration not given here
conditionDescription: hydroxyurea-induced phospho-Chk1 immunofluorescence imaging, higher = more signal
Label true for high-side z-score (at or above -0.3) and false for low-side z-score (below it).

Examples with answers:
[Q] Exam item: decide whether the reported z-score for Cc1ccc(N2C(=O)c3ccccc3[C@](C)(C(=O)NCC(F)(F)F)[C@@H]2c2ccc(CO)cc2)nc1 is at least -0.3.
[A] true

[Q] Now consider CCCCC(=C=CC[C@@H](O)c1ccc(OCCO)cc1)C[C@@H](O)c1cc(Cl)cc(Cl)c1O .
[A] false

[Q] Then this compound: COC(=O)C1=CC(c2ccc(CO)cc2)=CC(C2CC2)N(C)C=C1C(=O)OC (stereo not given)
[A] false

[Q] Note, next up: CC(C)[Si](C#C[Si](C(C)C)(C(C)C)C(C)C)(O[C@H](C)c1cn([C@H](C)c2ccccc2)nn1)C(C)C
[A] true

More entries:
[Q] Is reported z-score greater than or equal to -0.3 here: C/C=C/[C@@H](CCn1cc(CCO[Si](C(C)C)(C(C)C)C(C)C)nn1)[Si](C)(C)c1ccc(OC)cc1
[A] true

---

assay: E. coli acrAB mutant growth effects, primary screen, E. coli filamentation inducers, strain DRC39, OD650, 48 h (AID 1179);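 further: screen aims at cell division blockers that make cells filament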
conditionDescription: E. coli DRC39 delta-acrAB growth, higher = more signal, called active from +8 up or from −8 down
experimentalReadout: z-score
In your answer, state the number alone without any accompanying words.

Below, each entry is followed by its recorded z-score result.
[Q] z-score for C=C(COC)C(=O)CC[C@@H](OC(=O)c1ccccc1-c1ccccc1C(=O)O)c1cccc(OCCO)c1 ?
[A] 0.755

[Q] Item: O=C1c2ccccc2[C@@]2(Cc3ccccc3N(CC(F)(F)F)C2=O)[C@H](c2ccc(CO)cc2)N1Cc1ccccc1C(F)(F)F
[A] -0.344

Others:
[Q] Give its z-score value. Item: CCCC[C@@H](O)C1=C(C)C[C@H]2C(=O)N(C)C(=O)[C@H]2[C@H]1CO
[A] 1.75

[Q] Can you check COc1ccc([Si](C)(C)[C@H]2[C@H](CC(=O)N3Cc4ccccc4C[C@H]3CO)O[C@@]3(C(=O)N(Cc4cccc(N5C(=O)COc6ccccc65)c4)c4ccccc43)[C@@H]2C)cc1 next?
[A] -0.185

[Q] Cool, now CC(C)N1C(=O)c2ccccc2[C@@H](C(=O)NCc2ccccc2)[C@@H]1c1ccc(CO)cc1
[A] 0.169

[Q] Subsequent entry: C=C(/C(=C/C[C@H](OC(=O)c1ccncc1)c1cccc(OCCO)c1)c1cc(C(=O)OC)ccc1OC)C(C)C
[A] 0.196

[Q] Field entry: CCCCCN1CC=CC23O[C@@H]4/C=C\CCC(C)OC(=O)C4[C@H]2C(=O)N(CCO)[C@@H]3C1=O (some centres not stated)
[A] 1.11

---

assay: splicing luciferase reporter signal modulators, primary screen, spliceosome inhibition project, cell-based, HEK293, splice +/- reporter (AID 1101);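 further: HEK293 cells carrying a splicing-competent luciferase reporter gene; test concentration not given here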
conditionDescription: luminescence, 24 h, higher = more signal, called active from +8 up or from −8 down
experimentalReadout: z-score
# respond with the number and nothing more

[Q] I'd like to know its z-score. The molecule in question is CC(=O)NCCCC[C@@H]1NC(=O)[C@@H]2C[C@H](C(=O)O)[C@H](c3cccc(OCCO)c3)N2C1=O
[A] -0.877

[Q] Same thing, different molecule: COCCCNC(=O)[C@@]1(C)c2ccccc2C(=O)N(Cc2cc(F)cc(C(F)(F)F)c2)[C@H]1c1ccc(CO)cc1
[A] -0.112

[Q] C=C(CCCC)/C(=C/C[C@@H](OC(=O)c1ccncc1)c1ccc(OCCO)cc1)c1cnc2ccccc2c1 , same question.
[A] -1.18

[Q] Could you do the same for COCCCN1C(=O)[C@@]2(Cc3ccccc31)c1ccccc1C(=O)N(Cc1ccccc1Cl)[C@H]2c1ccc(CO)cc1 , please?
[A] -0.471

Next:
[Q] Query (molecule): CCCNC(=O)[C@@]1(Sc2ccc(C)cc2)CC(=O)N(Cc2cc(C(F)(F)F)cc(C(F)(F)F)c2)[C@@H]1c1ccc(CO)cc1I ; field requested: z-score
[A] -2.39

[Q] What about COCCCNC(=O)[C@@]1(Cc2ccccc2)N=C(c2ccc(OCCCO)cc2)O[C@H]1c1ccccc1N=[N+]=[N-] ?
[A] -1.3

[Q] Try this molecule next: COc1ccc([Si](C)(C)[C@H]2[C@H](CC(=O)N3Cc4ccccc4C[C@H]3CO)O[C@@]3(C(=O)N(Cc4cccc(N5C(=O)COc6ccccc65)c4)c4ccccc43)[C@@H]2C)cc1
[A] -1.72

Where these numbers come from: PubChem BioAssay
